Values from patent US20200392228A1

systemUnderTest: T1, human MAdCAM expressed on cells (human, UniProt Q13477 19-382)
T1 construct: whole, on cells; also called MADCAM1
T1 sequence (looked up): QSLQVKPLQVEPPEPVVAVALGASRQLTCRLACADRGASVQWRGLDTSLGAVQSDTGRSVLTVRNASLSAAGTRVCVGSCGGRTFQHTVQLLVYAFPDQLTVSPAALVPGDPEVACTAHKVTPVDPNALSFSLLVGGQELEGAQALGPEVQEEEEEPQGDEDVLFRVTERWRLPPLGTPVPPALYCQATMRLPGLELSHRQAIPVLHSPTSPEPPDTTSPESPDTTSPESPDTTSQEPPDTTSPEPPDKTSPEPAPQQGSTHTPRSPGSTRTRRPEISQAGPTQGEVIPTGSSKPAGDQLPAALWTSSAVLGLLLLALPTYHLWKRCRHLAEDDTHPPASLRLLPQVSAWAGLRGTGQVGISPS
assayDetails: cell binding
quantity: binding result

1) MAdCAM antibody Clone ID 15 of Table 7 (IgG) (antibody, V domains shown, IgG format) VH: QVQLVQSGAEVKKPGASVKVSCKASGYTFTGYYMHWVRQAPGQGLEWMGWIGPNSGDTNYAQKFQGRVTMTRDTSTSTVYMELSSLRSEDTAVYYCARDLDHNWYFDLWGRGTLVTVSS VL: DIVMTQSPLSLPVTPGEPASISCRSSQSLLHSNGYNYLDWYLQKPGQSPQLLIYSSSNRAPGVPDRFSGSGSGTDFTLKISRVEAEDVGVYYCMQALHIPLTFGGGTKVEIK = binds
2) MAdCAM antibody Clone ID 37 of Table 7 (IgG) (antibody, V domains shown, IgG format) VH: EVQLLESGGGLVQPGGSLRLSCAASGFTFSDYGMPWVRQAPGKGLEWVSAISGSGGSTYYADSVKGRFTISRDNSKNTLYLQMNSLRAEDTAVYYCARDGGWQPAAILDYWGQGTLVTVSS VL: DIQMTQSPSSLSASVGDRVTITCRASQGISNNLNWYQQKPGKAPKLLIYDASNLETGVPSRFSGSGSGTDFTLTISSLQPEDFATYYCQQSYSTPLTFGQGTKVEIK = binds
3) MAdCAM antibody Clone ID 17 of Table 7 (IgG) (antibody, V domains shown, IgG format) VH: QVQLVQSGAEVKKPGSSVKVSCKASGYTFTDYHIHWVRQAPGQGLEWMGGIVPRSGSTTYAQKFQGRVTITADESTSTAYMELSSLRSEDTAVYYCAKDESSGWYYFDYWGQGTLVTVSS VL: DIVMTQSPLSLPVTPGEPASISCRSSQSLLHSNGYNYLDWYLQKPGQSPQLLIYSAYNRASGVPDRFSGSGSGTDFTLKISRVEAEDVGVYYCMQALQTPLTFGQGTKVEIK = binds
